target: human TLR7 (Homo sapiens, UniProt Q9NYK1); construct: host or cells: HEK-Blue 293 cells expressing human TLR7; test: Cell-based TLR 7/8 assay, HEK-Blue TLR7 cells (SEAP reporter); settings: based on Compound concentration only; Compounds formulated as SNEs; read-out: huTLR7 EC50 (converted)
Sequence (Q9NYK1 27-1049): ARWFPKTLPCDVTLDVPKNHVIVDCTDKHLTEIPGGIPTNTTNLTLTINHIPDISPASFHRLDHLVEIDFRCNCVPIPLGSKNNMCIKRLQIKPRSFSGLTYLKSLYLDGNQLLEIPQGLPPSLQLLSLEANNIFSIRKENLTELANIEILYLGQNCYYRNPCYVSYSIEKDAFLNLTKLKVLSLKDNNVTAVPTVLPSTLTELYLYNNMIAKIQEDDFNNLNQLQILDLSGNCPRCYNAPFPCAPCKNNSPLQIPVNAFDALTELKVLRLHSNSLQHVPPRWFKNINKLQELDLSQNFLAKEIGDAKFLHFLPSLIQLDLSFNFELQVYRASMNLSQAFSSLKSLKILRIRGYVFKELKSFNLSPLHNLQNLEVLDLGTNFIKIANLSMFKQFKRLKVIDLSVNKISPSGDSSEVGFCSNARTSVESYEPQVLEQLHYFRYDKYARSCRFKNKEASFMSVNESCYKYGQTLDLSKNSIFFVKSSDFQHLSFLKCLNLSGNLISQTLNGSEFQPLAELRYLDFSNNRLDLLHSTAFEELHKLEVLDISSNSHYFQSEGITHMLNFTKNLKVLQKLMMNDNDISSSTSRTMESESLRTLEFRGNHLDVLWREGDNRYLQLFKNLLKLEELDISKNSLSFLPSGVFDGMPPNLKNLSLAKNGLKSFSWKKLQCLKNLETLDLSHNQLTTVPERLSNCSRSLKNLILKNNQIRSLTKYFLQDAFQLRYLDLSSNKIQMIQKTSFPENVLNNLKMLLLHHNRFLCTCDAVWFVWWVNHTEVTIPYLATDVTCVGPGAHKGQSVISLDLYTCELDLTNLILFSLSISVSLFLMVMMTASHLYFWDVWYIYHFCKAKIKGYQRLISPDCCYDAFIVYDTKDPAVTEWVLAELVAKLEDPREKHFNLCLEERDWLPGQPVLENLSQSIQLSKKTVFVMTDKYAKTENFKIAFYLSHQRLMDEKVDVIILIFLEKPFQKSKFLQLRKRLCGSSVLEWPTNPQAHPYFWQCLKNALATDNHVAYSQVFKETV
Readout Label: EC50 (µM)

The examples below pair each entry with its known result.
* CCCCCCCCCCCCCCCCCC(=O)NCCCCC(=O)N1CCN(c2cc(OC)c(Cn3cc4nc(N)nc(NCCCC)c4n3)c(OC)c2)CC1 | 14.9
* CCCCCCCCCCCCCCCCCC(=O)NCCC(=O)N1CCN(c2ccc(Cn3cc4nc(N)nc(NCCCC)c4n3)c(OC)c2)CC1 | 3.07
* CCCCCCCCCCCCCCCCCC(=O)NCCCNC(=O)C1CCN(c2ccc(Cn3cc4nc(N)nc(NCCCC)c4n3)c(OC)c2)CC1 | 64.7

1: CCCCC/C=C\C/C=C\CCCCCCCC(=O)NCCCCC(=O)N1CCN(c2ccc(Cn3cc4nc(N)nc(NCCCC)c4n3)c(OC)c2)CC1
2: CCCCCCCCCCCCCCCCCC(=O)NCCCCC(=O)N1CCC(c2ccc(Cn3cc4nc(N)nc(NCCCC)c4n3)c(OC)c2)CC1
3: CCCCCCCCCCCCCCCCCC(=O)NCCCCC(=O)N1CC(c2ccc(Cn3cc4nc(N)nc(NCCCC)c4n3)c(OC)c2)C1
4: CCCCC/C=C\C/C=C\CCCCCCCCC(CCCCCCCC/C=C\C/C=C\CCCCC)OC(=O)NCCCCN(C)Cc1cc(OC)c(Cn2cc3nc(N)nc(NCCCC)c3n2)c(OC)c1
**Q:** // ascending sort on recorded EC50 Answer format: the labels, in the requested order.
**A:** 1, 2, 3, 4
(1: 0.389 µM, 2: 4.19 µM, 3: 8.43 µM, 4: 17.2 µM)

A: CCCCCCCCCCCCCCCCCC(=O)NCCCCC(=O)N1CCN(c2ccc(Cn3nc4c(NCCCC)nc(N)nc4c3C)c(OC)c2)CC1
B: CCCCCCCCCCCCCCCCCC(=O)NCCCNC(=O)N1CCN(c2ccc(Cn3cc4nc(N)nc(NCCCC)c4n3)c(OC)c2)CC1
**Q:** Of the two listed items, A and B , which carries the larger EC50 figure? I would appreciate it if you answered with the label of your choice.
**A:** B
(B: 17.7 µM, A: 0.316 µM)

a: CCCCCCCCCCCCCC(=O)NCCCCN(C)Cc1cc(OC)c(Cn2cc3nc(N)nc(NCCCC)c3n2)c(OC)c1
b: CCCCCCCCCCCCCCCCCC(=O)NCCCCCCC(=O)N1CCN(c2ccc(Cn3cc4nc(N)nc(NCCCC)c4n3)c(OC)c2)CC1
**Q:** Which one would you say has the larger EC50 value: a , or b ? Provide the label of your selected option as the answer.
**A:** b
